Origin of the recorded values: ChEMBL document CHEMBL1130917

A set of compounds tested on UniProtKB P08253, with measured IC50:
Express your answer in nM, writing the number without its unit.

Reference set, count: 3
>>> value_reported("CC(C)C[C@H]1C(=O)N[C@H](C(=O)Nc2ccccn2)Cc2ccc(cc2)OCCCC[C@@H]1C(=O)NO")
2.1
>>> value_reported("CC(C)C[C@H]1C(=O)N[C@H](C(=O)NCCc2ccc(S(N)(=O)=O)cc2)Cc2ccc(cc2)OCCCC[C@@H]1C(=O)NO")
1.9
>>> value_reported("CSCCNC(=O)[C@@H]1Cc2ccc(cc2)OCCCC[C@H](C(=O)NO)[C@@H](CC(C)C)C(=O)N1")
3.8

Kindly review the next compound as well.
Request: Value lookup for IC50; key = CC(C)C[C@H]1C(=O)N[C@H](C(=O)NCCN(C)C)Cc2ccc(cc2)OCCCC[C@@H]1C(=O)NO
Response: 6.5

----------
IC50: recorded values
- tested-system: Matrilysin (Homo sapiens, UniProt P09237)
- Sequence (P09237 whole entry): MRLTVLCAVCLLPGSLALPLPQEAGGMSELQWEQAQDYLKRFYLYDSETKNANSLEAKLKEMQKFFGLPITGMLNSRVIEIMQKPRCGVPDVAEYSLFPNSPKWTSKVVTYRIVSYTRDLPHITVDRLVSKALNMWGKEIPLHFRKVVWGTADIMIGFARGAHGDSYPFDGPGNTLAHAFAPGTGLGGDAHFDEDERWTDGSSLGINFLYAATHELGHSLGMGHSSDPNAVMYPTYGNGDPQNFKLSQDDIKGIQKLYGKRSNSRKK
Express your answer in nM, writing the number without its unit.

Reference set, count: 2
>>> value_reported("CNC(=O)[C@@H]1Cc2ccc(cc2)OCCC[C@H](C(=O)O)[C@@H](CC(C)C)C(=O)N1")
900
>>> value_reported("CSCCNC(=O)[C@@H]1Cc2ccc(cc2)OCCCC[C@H](C(=O)NO)[C@@H](CC(C)C)C(=O)N1")
2.5

Request: Value lookup for IC50; key = CNC(=O)[C@@H]1Cc2ccc(cc2)OCCCCC[C@H](C(=O)O)[C@@H](CC(C)C)C(=O)N1
Response: 110

Request: Let us now turn to CC(C)C[C@H]1C(=O)N[C@H](C(=O)Nc2ccccn2)Cc2ccc(cc2)OCCCC[C@@H]1C(=O)NO
Response: 1.6

Request: Let us now turn to CNC(=O)[C@@H]1Cc2ccc(cc2)OCCCCC[C@H](C(=O)NO)[C@@H](CC(C)C)C(=O)N1
Response: 2.6

Request: Let us now turn to CCCc1ccc(CC[C@H]2C(=O)N[C@H](C(=O)NC)Cc3ccc(cc3)OCCCC[C@@H]2C(=O)NO)cc1
Response: 5.9

Request: Let us now turn to CNC(=O)[C@@H]1Cc2ccc(cc2)OCCCCCC[C@H](C(=O)NO)[C@@H](CC(C)C)C(=O)N1
Response: 5.7

----------
IC50: recorded values
- tested-system: 72 kDa type IV collagenase (Homo sapiens)
- Sequence (P08253 whole entry): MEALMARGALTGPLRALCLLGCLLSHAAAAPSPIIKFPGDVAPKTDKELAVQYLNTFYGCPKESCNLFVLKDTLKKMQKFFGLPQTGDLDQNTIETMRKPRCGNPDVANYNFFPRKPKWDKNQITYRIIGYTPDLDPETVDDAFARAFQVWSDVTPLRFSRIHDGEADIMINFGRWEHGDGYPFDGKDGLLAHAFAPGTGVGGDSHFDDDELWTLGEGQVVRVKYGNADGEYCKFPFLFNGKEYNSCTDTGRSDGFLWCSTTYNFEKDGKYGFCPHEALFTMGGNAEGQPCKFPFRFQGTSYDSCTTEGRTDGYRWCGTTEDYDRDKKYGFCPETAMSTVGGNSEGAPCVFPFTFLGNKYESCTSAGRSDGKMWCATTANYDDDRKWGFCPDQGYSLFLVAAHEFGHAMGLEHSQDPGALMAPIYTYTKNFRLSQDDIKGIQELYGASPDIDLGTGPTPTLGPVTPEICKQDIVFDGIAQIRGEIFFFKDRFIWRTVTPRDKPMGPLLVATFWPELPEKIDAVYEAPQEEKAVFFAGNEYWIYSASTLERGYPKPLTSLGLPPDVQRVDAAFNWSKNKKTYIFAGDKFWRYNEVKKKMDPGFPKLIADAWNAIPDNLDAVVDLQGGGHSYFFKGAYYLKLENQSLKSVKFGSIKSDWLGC
Express your answer in nM, writing the number without its unit.

>>> value_reported("CNC(=O)[C@@H]1Cc2ccc(cc2)OCCC[C@H](C(=O)O)[C@@H](CC(C)C)C(=O)N1")
14000

Request: Value lookup for IC50; key = CNC(=O)[C@@H]1Cc2ccc(cc2)OCCCC[C@@H](C(=O)NO)[C@@H](CC(C)C)C(=O)N1
Response: 230

Request: Let us now turn to CNC(=O)[C@@H]1Cc2ccc(cc2)OCCCC[C@H](C(=O)NO)[C@@H](CCCc2ccc(C)cc2)C(=O)N1
Response: 0.8

Request: Let us now turn to CCCc1ccc(CC[C@H]2C(=O)N[C@H](C(=O)NC)Cc3ccc(cc3)OCCCC[C@@H]2C(=O)NO)cc1
Response: 0.1

----------
- tested-system: Interstitial collagenase (Homo sapiens, UniProt P03956)
- Sequence (P03956 whole entry): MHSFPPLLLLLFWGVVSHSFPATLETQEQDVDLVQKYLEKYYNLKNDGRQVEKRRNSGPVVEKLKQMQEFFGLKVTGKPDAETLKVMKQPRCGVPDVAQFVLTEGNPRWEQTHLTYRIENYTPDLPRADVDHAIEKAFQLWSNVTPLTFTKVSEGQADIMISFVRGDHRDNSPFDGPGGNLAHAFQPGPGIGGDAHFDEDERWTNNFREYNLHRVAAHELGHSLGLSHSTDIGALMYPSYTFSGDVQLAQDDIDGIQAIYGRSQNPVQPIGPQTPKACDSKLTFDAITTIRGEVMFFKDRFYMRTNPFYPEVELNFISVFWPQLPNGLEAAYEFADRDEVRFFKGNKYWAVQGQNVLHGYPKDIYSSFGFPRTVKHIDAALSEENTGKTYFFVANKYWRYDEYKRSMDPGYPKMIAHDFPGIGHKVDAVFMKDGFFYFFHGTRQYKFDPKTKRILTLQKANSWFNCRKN
pIC50: −log10 of the molar value.
Classification field: enter fulfilled for pIC50 values not below 8, not fulfilled for values below it.

Some solved cases for reference:
>>> class_label("CNC(=O)[C@@H]1Cc2ccc(cc2)OCCCC[C@@H](C(=O)NO)[C@@H](CC(C)C)C(=O)N1")
"not fulfilled"
>>> class_label("CC(C)C[C@H]1C(=O)N[C@H](C(=O)Nc2ccccn2)Cc2ccc(cc2)OCCCC[C@@H]1C(=O)NO")
"fulfilled"
>>> class_label("CNC(=O)[C@@H]1Cc2ccc(cc2)OCCCCCC[C@H](C(=O)NO)[C@@H](CC(C)C)C(=O)N1")
"fulfilled"

Here's the next entry for you.
Request: Is pIC50 at least 8? Consider CSCCNC(=O)[C@@H]1Cc2ccc(cc2)OCCCC[C@H](C(=O)NO)[C@@H](CC(C)C)C(=O)N1
Response: fulfilled
